System: transglutaminase (TGase)
Assay: Measurement of TG (TGase inhibitory activity, monodansyl cadaverine / N,N-dimethylcasein fluorescence, FDSS 3000)
Type: biochemical
Settings: TGase activity with compound (10 mM, 1 μL in 0.1 ml enzyme reaction solution); DMSO control taken as 100
Listing of recorded TGase activity remaining (% of DMSO control = 100) by entry.
When you answer, write just the number.

Below are worked cases with known answers.
# input Form field: reported TGase activity remaining (% of DMSO control = 100) of `NCCOB(c1ccccc1)c1ccc2ccccc2c1-c1c(B(OCCN)c2ccccc2)ccc2ccccc12`
# output 88

# input Value lookup for TGase activity remaining (% of DMSO control = 100); key = `NCCSB(c1ccc(C(F)(F)F)cc1)c1ccc(C(F)(F)F)cc1`
# output 51

# input Name the recorded TGase activity remaining (% of DMSO control = 100) for `OB(c1ccc(Cl)cc1)c1ccc(Cl)cc1` .
# output 101

# input Quick check: TGase activity remaining (% of DMSO control = 100) of NCCCC(N)C(=O)OB(c1ccccc1)c1ccc(Oc2ccc(B(OC(=O)C(N)CCCN)c3ccccc3)cc2)cc1 (centres unmarked) ?
# output 26

# input So what does the record say about TGase activity remaining (% of DMSO control = 100) for `NCCOB(c1ccccc1)c1ccc(-c2ccc(B(OCCN)c3ccccc3)s2)s1` ?
# output 51

# input Need TGase activity remaining (% of DMSO control = 100) of `Nc1ccccc1SB(c1ccccc1)c1ccccc1` , thanks.
# output 2

# input // lookup TGase activity remaining (% of DMSO control = 100) for OB(c1ccccc1)c1ccc(B(O)c2ccccc2)c2ccccc12 [Example 135, 1,4-bis(phenylhydroxyboryl)naphthalene]
# output 99

# input Find the recorded TGase activity remaining (% of DMSO control = 100) belonging to `NCCOB(c1ccc(F)c(F)c1)c1ccc(F)c(F)c1` and report it.
# output 91

# input Report TGase activity remaining (% of DMSO control = 100) for Cc1ccc(B(OC(=O)C(N)CC(N)=O)c2ccc(COCc3ccc(B(OC(=O)C(N)CC(N)=O)c4ccc(C)cc4)cc3)cc2)cc1 (centres unmarked) please.
# output 92

# input Sample c1ccc(B(OCC2CCCN2)c2ccc3sc4ccc(B(OCC5CCCN5)c5ccccc5)cc4c3c2)cc1 (centres unmarked) — what was its TGase activity remaining (% of DMSO control = 100)?
# output 107

Continuing:
# input Any idea what TGase activity remaining (% of DMSO control = 100) was measured for `OB(c1ccc(Oc2ccc(B(O)c3cccc4ccccc34)cc2)cc1)c1cccc2ccccc12` ?
# output 33

# input For the compound shown here, CCC(N)COB(c1ccc(C)c(Cl)c1)c1ccc(C)c(Cl)c1 (centres unmarked) , give the reported TGase activity remaining (% of DMSO control = 100).
# output 40

# input What TGase activity remaining (% of DMSO control = 100) value was documented for this compound, CCCCB(CCCC)OC(=O)C(N)Cc1ccccc1 (centres unmarked) ?
# output 106

# input Would you kindly share the measured TGase activity remaining (% of DMSO control = 100) for `CC(C)(C)c1cc(B(OCCN)c2ccccc2)c2c(c1)C(C)(C)c1cc(C(C)(C)C)cc(B(OCCN)c3ccccc3)c1O2` ?
# output 88

# input Which TGase activity remaining (% of DMSO control = 100) is listed for Cc1ccc(B(OCC2CCCCN2)c2ccc(C)c(Cl)c2)cc1Cl (centres unmarked) ?
# output 99
